Structures can show the parent of a compound that is named as a salt.
quantityName: melting point (°C)

Solved entries (count: 5):
Cc1cncn1N(Cc1ccc(Br)cc1)c1ccc(C#N)cc1 | 152
N#Cc1ccc(N(Cc2ccc(F)cc2F)n2ccnc2)cc1 | 149
Cc1ccc(CN(c2ccc(C#N)cc2)n2ccnc2)cc1 | 156
N#Cc1ccc(N(Cc2ccccc2)n2ccnc2)cc1 | 107
N#Cc1ccc(CN(c2ccc(C#N)cc2)n2ccnc2)cc1 (as salt: hydrochloride) | 195

A = N#Cc1ccc(N(Cc2ccc(F)c(F)c2)n2ccnc2)cc1
B = N#Cc1ccc(CN(c2ccc(C#N)cc2C(F)(F)F)n2ccnc2)cc1
Hello, I am sorting some records. Could you say if A or B has the smaller melting point value? Selection: enter the item's label.
A
(A: 132 °C, B: 226 °C)

Taken from patent US6737433B1.
